// reported inhibition per item
# measurementTarget: Casein kinase I isoform gamma-2 (Homo sapiens) (UniProt P78368)
# Sequence (P78368 whole entry, looked up, canonical isoform): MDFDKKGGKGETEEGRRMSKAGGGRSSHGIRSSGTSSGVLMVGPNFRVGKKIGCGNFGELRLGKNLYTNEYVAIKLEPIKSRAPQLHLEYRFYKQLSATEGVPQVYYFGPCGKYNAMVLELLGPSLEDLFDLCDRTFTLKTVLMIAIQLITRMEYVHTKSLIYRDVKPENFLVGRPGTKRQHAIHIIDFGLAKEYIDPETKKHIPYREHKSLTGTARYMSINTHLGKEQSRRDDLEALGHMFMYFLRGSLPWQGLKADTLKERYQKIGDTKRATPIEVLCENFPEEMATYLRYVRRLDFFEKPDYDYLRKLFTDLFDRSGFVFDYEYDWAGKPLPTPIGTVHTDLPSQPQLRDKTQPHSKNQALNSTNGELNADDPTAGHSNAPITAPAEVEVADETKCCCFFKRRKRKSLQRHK
# measurementDescription: Competitive binding affinity to CSNK1G2 (unknown origin) at 10 uM in presence of ATP relative to control
attributeMeasured: inhibition (%)

> print(dat)
                                 smilestext  qualifier  numericresult
1  O[C@H]1CC[C@H](Nc2nccc(-n3ncc4ccccc43)n2)CC1          <             50
2  O=C([C@H]1CC[C@H](Nc2nccc(-n3nnc4ccccc43)n2)CC1)N1CCOCC1          =             76
3  O[C@H]1CC[C@H](Nc2nccc(-n3nnc4ccccc43)n2)CC1          =             50
4  N[C@H]1CC[C@H](Nc2nccc(-n3nnc4ccccc43)n2)CC1          =            100
5  O[C@H]1CC[C@H](Nc2nccc(-n3ccc4ccccc43)n2)CC1          <             50
6  O[C@H]1CC[C@H](Nc2nccc(-c3n[nH]c4ccccc34)n2)CC1          =             74
